Data origin, for the record: patent US20130045895A1

Assayed system: T1, Human Serum Albumin (human, UniProt P02768 25-609)
T1 construct: also called HSA; antigen
T1 sequence (P02768 25-609 limits assumed): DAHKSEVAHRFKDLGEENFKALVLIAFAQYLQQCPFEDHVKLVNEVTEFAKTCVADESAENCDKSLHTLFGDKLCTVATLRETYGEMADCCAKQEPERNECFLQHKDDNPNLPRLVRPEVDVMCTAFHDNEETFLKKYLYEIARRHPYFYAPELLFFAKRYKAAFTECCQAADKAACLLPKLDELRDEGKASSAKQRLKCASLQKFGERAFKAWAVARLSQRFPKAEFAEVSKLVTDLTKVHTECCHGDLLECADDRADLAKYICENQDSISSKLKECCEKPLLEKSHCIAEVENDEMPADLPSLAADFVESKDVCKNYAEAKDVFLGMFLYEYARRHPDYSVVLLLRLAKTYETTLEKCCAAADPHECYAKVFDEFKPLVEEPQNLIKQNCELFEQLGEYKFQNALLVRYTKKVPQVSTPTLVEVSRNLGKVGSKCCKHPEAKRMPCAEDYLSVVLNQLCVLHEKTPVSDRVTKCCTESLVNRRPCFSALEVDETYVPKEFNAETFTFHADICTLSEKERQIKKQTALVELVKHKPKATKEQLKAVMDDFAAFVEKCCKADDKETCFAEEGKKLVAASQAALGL
Protocol notes: SPR (Biacore 2000), purified dAb over HSA (559 RU) on CM5 chip
koff values for the binders below.
# value in s⁻¹; strip the unit string

DOM7h-14-10 A43D (other, name in Kabat numbering, also called A43D mutant of DOM7h-14-10) VL: DIQMTQSPSSLSASVGDRVTITCRASQWIGSQLSWYQQKPGKDPKLLIMWRSSLQSGVPSRFSGSGSGTDFTLTISSLQPEDFATYYCAQGLRHPKTFGQGTKVEIKR :: 0.012

Query (binder): DOM7h-11-15 (other, also called DOM7h-11-15 parent) VL: DIQMTQSPSSLSASVGDRVTITCRASRPIGTMLSWYQQKPGKAPKLLILAFSRLQSGVPSRFSGSGSGTDFTLTISSLQPEDFATYYCAQAGTHPTTFGQGTKVEIKR ; field requested: koff 0.0045

// query: DOM7h-11-15 A43D (other, name in Kabat numbering, also called A43D mutant of DOM7h-11-15) VL: DIQMTQSPSSLSASVGDRVTITCRASRPIGTMLSWYQQKPGKDPKLLILAFSRLQSGVPSRFSGSGSGTDFTLTISSLQPEDFATYYCAQAGTHPTTFGQGTKVEIKR 0.0047

// query: DOM7h-11-15 A43I (other, name in Kabat numbering, also called DOM7h-11-15 A43I mutant) VL: DIQMTQSPSSLSASVGDRVTITCRASRPIGTMLSWYQQKPGKIPKLLILAFSRLQSGVPSRFSGSGSGTDFTLTISSLQPEDFATYYCAQAGTHPTTFGQGTKVEIKR 0.0049
